biological target: T1, cynomolgus PD-L1 overexpressing stable cell line (cynomolgus, UniProt G7PSE7 19-290); assay: FACS, cynomolgus PD-L1 cell line
T1 construct: also called cynomolgus PD-L1 overexpressing cell line
T1 sequence (G7PSE7 entry or part of it limits assumed): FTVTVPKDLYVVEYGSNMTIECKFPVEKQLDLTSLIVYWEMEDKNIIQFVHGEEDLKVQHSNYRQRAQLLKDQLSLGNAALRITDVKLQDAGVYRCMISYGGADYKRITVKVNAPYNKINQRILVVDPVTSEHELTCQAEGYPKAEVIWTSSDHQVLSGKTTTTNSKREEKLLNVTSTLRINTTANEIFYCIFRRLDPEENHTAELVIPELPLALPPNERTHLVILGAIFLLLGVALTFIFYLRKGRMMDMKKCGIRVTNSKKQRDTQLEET
readout.kind: Top (best-fit value)
Form field (numeric): enter value without unit.

- binder: "29A8_chimeric (antibody, human IgG1, kappa, N297A, V domains shown, Human IgG1 with effector-less Fc mutations, human kappa; also called chimeric 29A8H8C7) VH: DVQLQGSGPGLVKPSQSLSLTCTVTGYSITSDFAWDWIRQFPGNKLEWMGHIRFSGTTSYNPSLKSRISITRDTSKNQFFLQLNSVTSEDTATYYCARSTLITKGFFDYWGQGTTLTVSS VL: DIVMTQSHKFMSTSVGGRVSITCKASQDVSPAVAWYQQKPGQSPKLLIYWASTRHTGVPDRFTGSGSGTDFTLTISSVQTEDLALYYCQQHYSTPWTFGGGTKLEIKR"
  Top (best-fit value): 8670

Prompt line: Dear colleague, I am looking for the recorded Top (best-fit value) of the following binder: 29A8_VH5-VL1.M1 (antibody, human IgG1, kappa, N297A, V domains shown, Humanized, hIgG1 effector-less Fc, kappa; see recheck on K24R in the .M1 light chain) VH: EVQLQESGPGLVKPSETLSLTCTVSGYSITSDFAWDWIRQPPGKGLEWIGHIRFSGTTSYNPSLKSRVTISRDTSKNQFSLKLSSVTAADTAVYYCARSTLITKGFFDYWGQGTLVTVSS VL: DIQMTQSPSSLSASVGDRVTITCRASQDVSPAVAWYQQKPGKAPKLLIYWASTRHTGVPSRFSGSGSGTDFTLTISSLQPEDFATYYCQQHYSTPWTFGQGTKVEIKR
Response line: 7950

Prompt line: For the binder 53C1_VH3-VL1.M1 (antibody, human IgG1, kappa, N297A, V domains shown, Humanized, hIgG1 effector-less Fc, kappa; see recheck on K24R in the .M1 light chain) VH: EVQLVQSGAEVKKPGASVKLSCKASGYIFTGYGITWVRQAPGQGLEWIGEIFPRRVNTYYSEKFKGRATLTADTSTSTAYMELRSLRSDDTAVYFCARDYDPYFALDYWGQGTTVTVSS VL: DIQMTQSPSSLSASVGDRVTITCRASQDVSTAVDWYQQKPGKAPKLLIYSASYRYTGVPDRFSGSGSGTDFTFTISSLQPEDIATYYCQQHYSIPFTFGQGTKLEIKR , what Top (best-fit value) is on record?
Response line: 8310

Prompt line: Reported Top (best-fit value) for 53C1_chimeric (antibody, human IgG1, kappa, N297A, V domains shown, Human IgG1 with effector-less Fc mutations, human kappa; also called chimeric 53C1F3D4) VH: QVQLQQSGNELARPGASVRLSCKASGYIFTGYGITWVRQRPGQGLEWIGEIFPRRVNTYYSEKFKGRATLTADISSSTAYMELRSLTSEDSAVYFCARDYDPYFALDYWGQGTSVTVSS VL: DIVMTQSHKFMSTSVGDRVSITCKASQDVSTAVDWYQQKPGQSPKLLIYSASYRYTGVPDRFTGSGSGTAFTFTISGEQAEDLAVYYCQQHYSIPFTFGGGTKLEIKR : what is it?
Response line: 8490
